system: Vero E6 cells; test: Cytotoxicity assay; type: cell-based
experimental endpoint: CC50

1. CC(C)C[C@@H](N)C(=O)N[C@H]1C(=O)N[C@@H](CC(N)=O)C(=O)N[C@H]2C(=O)N[C@H]3C(=O)N[C@H](C(=O)N[C@H](C(=O)O)c4cc(O)cc(O)c4-c4cc3ccc4O)[C@H](O)c3ccc(c(Cl)c3)Oc3cc2cc(c3O[C@@H]2O[C@H](CO)[C@@H](O)[C@H](O)[C@H]2O[C@H]2C[C@](C)(N)[C@H](O)[C@H](C)O2)Oc2ccc(cc2Cl)[C@H]1O > 100 µM

----------
experiment: Cytotoxicity assay; format: cell-based; conditions: African green monkey, Vero E6 cells

compound	CC50 / µM
Cc1c(O)cccc1C(=O)N[C@@H](CSc1ccccc1)[C@H](O)CN1C[C@H]2CCCC[C@H]2C[C@H]1C(=O)NC(C)(C)C [nelfinavir]	8.26
